Experiment: Radioactive metabolites in plasma, urine and feces after single oral dose of [14C] compound (I) to humans
Assay type: in vivo, human
Details: oral 100-mg, pooled fecal extracts 0-168 hr
Source text: Plasma samples were segregated by collection time and equal volumes of individual plasma samples at a given time point were combined for biotransformation profiling. The C-14 label was on the carbon-2 of the thiazole ring. […] Each fraction of column eluent was evaporated to dryness on a Savant Speed-Vac (Savant Instruments Inc., Holbrook, N.Y.) and counted for radioactivity with a Packard Top Count® microplate scintillation analyzer (Packard Biosciences, Downers Grove, Ill.). […]
MEASURED ENDPOINT: Metabolites in Feces (0-168 hr), Human, % Dose (%)

Some solved entries appear below for comparison.
Req: Consider the compound Cc1nc(Nc2ncc(C(=O)Nc3c(C)cccc3Cl)s2)cc(N2CCN(CCO)CC2)n1 [Parent (I), reference compound] and give its measured Metabolites in Feces (0-168 hr), Human, % Dose.
Resp: 19.1

Req: Look at this compound and give its reported Metabolites in Feces (0-168 hr), Human, % Dose. Cc1nc(Nc2ncc(C(=O)Nc3c(C)cccc3Cl)s2)cc(N2CCNCC2)n1 [M4 (II)]
Resp: 2.6

Req: Entry under review: Cc1nc(Nc2ncc(C(=O)Nc3c(C)cc(O)cc3Cl)s2)cc(N2CCN(CCO)CC2)n1 [M20 (V)] . Reported Metabolites in Feces (0-168 hr), Human, % Dose?
Resp: 31.2

a = Cc1nc(Nc2ncc(C(=O)Nc3c(C)cccc3Cl)s2)cc(N2CCN(CC(=O)O)CC2)n1 [M6 (IV)]
b = Cc1nc(Nc2ncc(C(=O)Nc3c(Cl)cccc3CO)s2)cc(N2CCN(CCO)CC2)n1 [M24 (VI)]
Req: Select one: a or b . Criterion: greater recorded Metabolites in Feces (0-168 hr), Human, % Dose. Select an item and report its label.
Resp: a
(a: 8.9%, b: 4.0%)

---

Assay: Radioactive metabolites in urine and bile after IV administration of [14C] compound (I) to bile-duct cannulated monkeys
Assay type: in vivo, monkey
Settings: IV infusion 2 mg/kg, urine 0-72 hr
MEASURED ENDPOINT: Metabolites in BDC-Monkeys (0-72 hr), Urine, % Dose (%)

Req: Any idea what Metabolites in BDC-Monkeys (0-72 hr), Urine, % Dose was measured for Cc1nc(Nc2ncc(C(=O)Nc3c(C)cccc3Cl)s2)cc(N2CC[N+]([O-])(CCO)CC2)n1 ?
Resp: 7.0

Req: For Cc1nc(Nc2ncc(C(=O)Nc3c(C)cc(O)cc3Cl)s2)cc(N2CCN(CCO)CC2)n1 , what is its reported Metabolites in BDC-Monkeys (0-72 hr), Urine, % Dose?
Resp: 0.3

Req: For Cc1nc(Nc2ncc(C(=O)Nc3c(C)cccc3Cl)s2)cc(N2CCN(CCO)CC2)n1 [Parent (I), reference compound] , what is its reported Metabolites in BDC-Monkeys (0-72 hr), Urine, % Dose?
Resp: 0.1

1 = Cc1nc(Nc2ncc(C(=O)Nc3c(Cl)cccc3CO)s2)cc(N2CCN(CCO)CC2)n1
2 = Cc1nc(Nc2ncc(C(=O)Nc3c(C)cccc3Cl)s2)cc(N2CCN(CC(=O)O)CC2)n1
Req: Hi, I'm comparing 1 with 2 and wondering which one has the bigger number for Metabolites in BDC-Monkeys (0-72 hr), Urine, % Dose. Any idea? Give the chosen item's label as your response.
Resp: 2
